# Tested on: SR leukemia
# protocolSummary: NCI tumour cell line growth inhibition, 48 h
We begin with a simple list: items and their reported TGI.

>  <molecule>
Cc1ccc(NC2=C(Cl)C(=O)N(Cc3ccccc3)C2=O)cc1Cl

>  <TGI>
5.75 µM

$$$$
>  <molecule>
CCOC(=O)N[C@@H]1C2CC(=O)C(O2)[C@@H]1OC (stereo partly specified)

>  <TGI>
> 100 µM

$$$$
>  <molecule>
Oc1ccc(-c2cn3cc(Cl)sc3n2)cc1

>  <TGI>
18.8 µM

$$$$
>  <molecule>
CCCCCCCCCCCCCCCCCC(=O)OCC(C[As](=O)(O)O)OC(=O)CCCCCCCCCCCCCCCCC (stereo unspecified)

>  <TGI>
38.9 µM

$$$$
>  <molecule>
CC(CO)(CBr)COC(=O)c1cc(Br)c(N)c(Br)c1 (stereo unspecified)

>  <TGI>
> 100 µM

$$$$
>  <molecule>
O=C1N=NC(=O)N1c1cc(C(F)(F)F)cc(C(F)(F)F)c1

>  <TGI>
> 53.1 µM

$$$$
>  <molecule>
CC(=O)N1CC(=O)NC1=S

>  <TGI>
> 100 µM

$$$$
>  <molecule>
CN(C)[C@H]1CC[C@H]2[C@@H]3CCC4C[C@@H](NC(=O)NC(Cc5ccccc5)c5nccs5)CC[C@]4(C)[C@H]3CC[C@]12C (stereo partly specified)

>  <TGI>
4.14 µM

$$$$
>  <molecule>
CCOC(=O)N/N=C(\Cc1ccc([N+](=O)[O-])cc1)OCC

>  <TGI>
> 100 µM

$$$$
>  <molecule>
COC1OC(COS(=O)(=O)c2ccc(C)cc2)C(O)C(OS(=O)(=O)c2ccc(C)cc2)C1OS(=O)(=O)c1ccc(C)cc1 (stereo unspecified)

>  <TGI>
> 100 µM

$$$$
>  <molecule>
COc1ccc(-c2nc(N3CCOCC3)c3sc(CN(C)c4ncc(C(=O)NO)cn4)cc3n2)cn1

>  <TGI>
0.234 µM

$$$$
>  <molecule>
C(=NCCCN1CCN(CCCN=Cc2cccc3ccccc23)CC1)c1cccc2ccccc12

>  <TGI>
> 100 µM

$$$$
>  <molecule>
COc1cc(C2CC(c3ccccc3)=NN2C(C)=O)cc(OC)c1OC (stereo unspecified)

>  <TGI>
> 100 µM

$$$$
>  <molecule>
CC1OC(OC2C(CO)OC(O[C@H]3CC[C@@]4(C)C(=CC[C@H]5[C@@H]6C[C@@H]7O[C@](O)(CC[C@H](C)COC8OC(CO)C(O)C(O)C8O)[C@@H](C)[C@@H]7[C@@]6(C)CC[C@@H]54)C3)C(OC3OC(C)C(O)C(O)C3O)C2O)C(O)C(O)C1O (stereo partly specified)

>  <TGI>
> 100 µM

$$$$
>  <molecule>
COc1ccc(OC)c(/C=C2\COc3ccc(O)c(O)c3C2=O)c1

>  <TGI>
> 100 µM

$$$$
>  <molecule>
O=C1/C(=C/c2ccc(Cl)cc2)N=C(c2ccccc2)N1c1nc2c(Cl)cc(Cl)cc2s1

>  <TGI>
42.5 µM

$$$$
>  <molecule>
O=C(Nc1ccc(OCc2nnc(-c3ccccc3)o2)c(F)c1)Nc1ccc(Cl)c(C(F)(F)F)c1

>  <TGI>
4.31 µM

$$$$
>  <molecule>
O=C1CCC(N2Cc3c(C#CCCCNC(=O)c4cc5c(o4)C(=O)c4ccccc4C5=O)cccc3C2=O)C(=O)N1 (stereo unspecified)

>  <TGI>
14.5 µM

$$$$
>  <molecule>
C/C=N\n1c(C)c(C#N)c(C#N)c1N

>  <TGI>
> 100 µM

$$$$
>  <molecule>
CCOC(=O)C(C(=O)OCC)=C1N[C@H](C(=O)OCC)CS1

>  <TGI>
> 100 µM

$$$$
>  <molecule>
CCn1c(-c2nonc2N)nc2cncc(C(=O)NCCNC)c21

>  <TGI>
> 25 µM

$$$$
